- system under test: 3CL Protease (Severe acute respiratory syndrome coronavirus 2)
- assay procedure: 3CL Protease enzymatic activity assay (BPS Bioscience Assay Kit #78043-1, fluorescence)
- Assay type: biochemical, SARS-CoV-2
- particulars: Table A; 30 min preincubation, 40 μM substrate, 4 hours at room temperature; read-out: IC50, nM (3CL Protease enzymatic activity)
assay metric: IC50

# compound, system under test, result
measured = [
    ("COc1cc2[nH]c(=O)c(C[C@@H](C#N)NC(=O)[C@@H]3[C@@H]4[C@H](CN3C(=O)[C@@H](NC(=O)C(F)(F)F)C(C)(C)C)C4(C)C)cc2cc1C", "3CL Protease (Severe acute respiratory syndrome coronavirus 2)", "50 to 100 nM"),
    ("CC(C)(C)[C@H](NC(=O)C(F)(F)F)C(=O)N1C[C@H]2C([C@H]1C(=O)NC(C#N)Cc1cc3cc(Cl)ccc3[nH]c1=O)C2(C)C (stereo in doubt)", "3CL Protease (Severe acute respiratory syndrome coronavirus 2)", "50 to 100 nM"),
    ("Cc1ccc2[nH]c(=O)c(C[C@@H](C#N)NC(=O)[C@@H]3C4[C@H](CN3C(=O)[C@@H](Nc3nc(C)cs3)C(C)(C)C)C4(C)C)cc2c1 (stereo in doubt)", "3CL Protease (Severe acute respiratory syndrome coronavirus 2)", "250 to 500 nM"),
    ("Cc1cc2cc(CC(C#N)NC(=O)[C@@H]3C4[C@H](CN3C(=O)[C@@H](NC(=O)C(F)(F)F)C(C)(C)C)C4(C)C)c(=O)[nH]c2cc1C (stereo in doubt)", "3CL Protease (Severe acute respiratory syndrome coronavirus 2)", "50 to 100 nM"),
    ("Cc1ccc2[nH]c(=O)c(C[C@@H](C#N)NC(=O)C3C[C@H]4OCC[C@H]4N3C(=O)[C@@H](NC(=O)C(F)(F)F)C(C)(C)C)cc2c1 (stereo partly drawn)", "3CL Protease (Severe acute respiratory syndrome coronavirus 2)", "≥ 1000 nM"),
    ("CC(C)(C)[C@H](NC(=O)C(F)(F)F)C(=O)N1C[C@H]2[C@@H]([C@H]1C(=O)N[C@H](C#N)Cc1cc3cc(F)c(F)cc3[nH]c1=O)C2(C)C", "3CL Protease (Severe acute respiratory syndrome coronavirus 2)", "50 to 100 nM"),
    ("Cc1ccc2[nH]c(=O)c(CC(C#N)NC(=O)[C@H](Cc3ccccc3)NC(=O)[C@@H](NS(=O)(=O)CC(F)(F)F)C(C)(C)C)cc2c1 (stereo partly drawn)", "3CL Protease (Severe acute respiratory syndrome coronavirus 2)", "100 to 250 nM"),
    ("CN1c2ccccc2NC(=O)C1CC(C#N)NC(=O)[C@@H]1[C@@H]2[C@H](CN1C(=O)[C@@H](NC(=O)C(F)(F)F)C(C)(C)C)C2(C)C (stereo partly drawn)", "3CL Protease (Severe acute respiratory syndrome coronavirus 2)", "≥ 1000 nM"),
    ("Cc1ccc2[nH]c(=O)c(CC(C#N)NC(=O)[C@@H]3C4[C@H](CN3C(=O)[C@@H](NS(C)(=O)=O)C(C)(C)C)C4(C)C)cc2c1 (stereo in doubt)", "3CL Protease (Severe acute respiratory syndrome coronavirus 2)", "< 50 nM"),
    ("CC(C)(C)[C@H](NC(=O)C(F)(F)F)C(=O)N1C[C@H]2C([C@H]1C(=O)NC(C#N)Cc1cc3ccc(Cl)cc3[nH]c1=O)C2(C)C (stereo in doubt)", "3CL Protease (Severe acute respiratory syndrome coronavirus 2)", "50 to 100 nM"),
    ("Cc1ccc2[nH]c(=O)c(C[C@@H](C#N)NC(=O)[C@@H]3[C@@H]4[C@H](CN3C(=O)Cc3cc(C(F)(F)F)n[nH]3)C4(C)C)cc2c1", "3CL Protease (Severe acute respiratory syndrome coronavirus 2)", "≥ 1000 nM"),
    ("Cc1ccc2[nH]c(=O)c(CC(C#N)NC(=O)[C@@H]3C4[C@H](CN3C(=O)[C@@H](Nc3nc(C)cs3)C(C)(C)C)C4(C)C)cc2c1 (stereo in doubt)", "3CL Protease (Severe acute respiratory syndrome coronavirus 2)", "500 to 1000 nM"),
    ("Cc1ccc2[nH]c(=O)c(C[C@@H](C#N)NC(=O)[C@@H]3C4[C@H](CN3C(=O)[C@@H](Nc3ccnc(C)n3)C(C)(C)C)C4(C)C)cc2c1 (stereo in doubt)", "3CL Protease (Severe acute respiratory syndrome coronavirus 2)", "≥ 1000 nM"),
    ("CC(C)(C)[C@H](NS(C)(=O)=O)C(=O)N1C[C@H]2[C@H]([C@H]1C(=O)NC(C#N)Cc1cc3cnccc3[nH]c1=O)C2(C)C (stereo partly drawn)", "3CL Protease (Severe acute respiratory syndrome coronavirus 2)", "< 50 nM"),
    ("CC(C)(C)[C@H](NC(=O)C(F)(F)F)C(=O)N1C[C@H]2[C@@H]([C@H]1C(=O)N[C@@H](C#N)Cc1cc3cnccc3[nH]c1=O)C2(C)C", "3CL Protease (Severe acute respiratory syndrome coronavirus 2)", "≥ 1000 nM"),
    ("CC(C)(C)[C@H](NS(C)(=O)=O)C(=O)N1C[C@H]2C([C@H]1C(=O)NC(C#N)Cc1cc3c([nH]c1=O)CCOC3)C2(C)C (stereo in doubt)", "3CL Protease (Severe acute respiratory syndrome coronavirus 2)", "100 to 250 nM"),
    ("CC(C)(C)[C@H](NC(=O)C(F)(F)F)C(=O)N1C[C@H]2C([C@H]1C(=O)NC(C#N)Cc1cc3c([nH]c1=O)CCOC3)C2(C)C (stereo in doubt)", "3CL Protease (Severe acute respiratory syndrome coronavirus 2)", "100 to 250 nM"),
    ("Cc1ccc2[nH]c(=O)c(C[C@@H](C#N)NC(=O)[C@@H]3[C@H]4[C@H](CN3C(=O)[C@@H](NC(=O)C(F)(F)F)C(C)(C)C)C4(C)C)cc2c1 (stereo in doubt) [Compound 107]", "3CL Protease (Severe acute respiratory syndrome coronavirus 2)", "50 to 100 nM"),
    ("CC(C)(C)[C@H](NS(C)(=O)=O)C(=O)N1C[C@H]2[C@@H]([C@H]1C(=O)N[C@H](C#N)Cc1cc3cnccc3[nH]c1=O)C2(C)C", "3CL Protease (Severe acute respiratory syndrome coronavirus 2)", "< 50 nM"),
    ("Cc1ccc2cc(CC(C#N)NC(=O)[C@@H]3C4[C@H](CN3C(=O)[C@@H](NC(=O)C(F)(F)F)C(C)(C)C)C4(C)C)c(=O)[nH]c2c1 (stereo in doubt)", "3CL Protease (Severe acute respiratory syndrome coronavirus 2)", "50 to 100 nM"),
    ("Cc1ccc2[nH]c(=O)c(C[C@H](C#N)NC(=O)[C@@H]3[C@H]4[C@H](CN3C(=O)[C@@H](NC(=O)C(F)(F)F)C(C)(C)C)C4(C)C)cc2c1", "3CL Protease (Severe acute respiratory syndrome coronavirus 2)", "≥ 1000 nM"),
]
